All figures here come from the RNAGym collection of RNA variant scans (doi:10.1126/science.aae0568).

Property: yeast fitness; scope: individual variants
B1: tRNA (parent)
chain: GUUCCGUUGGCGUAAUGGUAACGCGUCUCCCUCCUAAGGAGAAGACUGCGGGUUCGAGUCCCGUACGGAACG

Variants of: B1
RUN DESCRIPTION: yeast fitness relative to wild type (ratio to wild type); higher = fitter; tRNA-Arg(CCU), competitive growth, 37 C, YPD
Fewer inactive variants are shown than the library holds.

>>> endpoint_value("GUUCCGUUGGCGUAAUGGUAAAACGUCUCCCUCCUAGGGAGAAGACUGCGGGUUCGAGUCCCGUACGGUACG [C22A G23A A37G A69U]")
"≤ 0.5"
>>> endpoint_value("GUUCCGUCGGCGUAAUGGUAACGUGUCUCCCUCCUAAGGAGCAGACUGCUGGUUCGAGUCCCGUACGGAACG [U8C C24U A42C G50U]")
0.674
>>> endpoint_value("GUUCCGUUGGCAUAAUGGUGUCGCGUCUCCCUCCUAAGGGGAAGACUGCGGGUUCGAGUCCCGUACGGAACG [G12A A20G A21U A40G]")
"≤ 0.5"
>>> endpoint_value("GAUCCGUUGACGUAAUGGUUAGGCGUCUCCCUCCUAAGGAGAACACUGCGGGUUCGAGUCGCGUACGGAACG [U2A G10A A20U C22G G44C C61G]")
0.502
>>> endpoint_value("GUUCCGUUGGCGUAAUGGUAACGCGUCUCCGUCCUAAGGAGAAGACUGCGAGUUCGGGUCCCGUACGCAACG [C31G G51A A57G G68C]")
"≤ 0.5"

Item GCUCCGUUGGCGUAAUGGUAACGCGUCGCCCUCCUAAGGAGAUGACUGCGGGUUCCUGUCCCGUACAGAACG [U2C U28G A43U G56C A57U G67A] has what recorded yeast fitness?
≤ 0.5

Queued: GUUCCGUUGGCGUAAUGGUAACGCCACUCCCUCCCAAGGAGAAGACUGCGGGUUCGAGUCCCGUACGGAACG [G25C U26A U35C]
≤ 0.5

Okay, and GUUCCGUUGGCGUAAUGGUAACGCGUCUCUCUCGUAAGGAGAAGACUGCGGGUUCGAGUCCCGUACGGAACG [C30U C34G] ?
0.715

Now the same for GUUCCGCUGGCGUAAUGGUAACGCGUCUCCCUCCUAAGGAGAAGACCGCGGGUCGGAGUCCCGUACGGAACG [U7C U47C U54C C55G]
≤ 0.5

How about this variant: GUUCCGUUGGCGAAAUGGUAACGCGUCUCCCUCCUAAGGAAAAGACUGCGGGUUCGAGUCCCGUACAGAACG [U13A G41A G67A]
0.546

Further, for GUUCCGUUGGCGUAAUGGUAAGGCGUCUCCGUCCUAAGGAGAAGACUGCGGGAUCGAGUCCCGUACGGAACG [C22G C31G U53A] ?
≤ 0.5
